test_system: D(1A) dopamine receptor (Homo sapiens)
Sequence (P21728 whole entry): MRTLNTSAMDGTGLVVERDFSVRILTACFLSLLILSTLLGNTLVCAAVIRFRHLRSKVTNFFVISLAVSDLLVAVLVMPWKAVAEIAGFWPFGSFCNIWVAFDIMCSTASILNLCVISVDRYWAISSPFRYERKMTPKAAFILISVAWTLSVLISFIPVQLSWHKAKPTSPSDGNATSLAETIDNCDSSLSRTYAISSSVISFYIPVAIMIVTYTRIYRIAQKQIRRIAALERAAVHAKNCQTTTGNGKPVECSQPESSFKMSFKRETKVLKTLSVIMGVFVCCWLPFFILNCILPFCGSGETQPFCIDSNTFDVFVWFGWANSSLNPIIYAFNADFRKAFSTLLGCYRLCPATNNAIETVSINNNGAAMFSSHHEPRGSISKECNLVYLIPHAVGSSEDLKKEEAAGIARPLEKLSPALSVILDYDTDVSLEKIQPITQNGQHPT
method: Displacement of [3H]SCH23390 from dopamine D1 receptor expressed in Ltk deficient fibroblast cells by liquid scintillation counting
observed_property: pKi
Quick note: pKi values are minus log10 of concentrations in mol/L.

Some entries whose results are on file:
>>> print(df.to_string())
                           smiles_structure  observed_property  recorded_result
0  CCN1CCc2cc(-c3ccc(O)cc3)cc3c2[C@H]1Cc1ccc(O)c(O)c1-3                pKi             6.91
1  CN1CCc2cc(-c3ccccc3)cc3c2[C@H]1Cc1ccc(O)c(O)c1-3                pKi             7.06

Here's the next entry for you.
What does the record list as pKi for CCCN1CCc2cc(-c3ccc(O)cc3)cc3c2[C@H]1Cc1ccc(O)c(O)c1-3 ?
7.03
